All figures here come from patent US20260242478A1.

- Target or system: anti-CD28 scFv (VH - linker 1 - VL) (biotinylated (site not stated))
- Sequence (scFv, as listed by the source): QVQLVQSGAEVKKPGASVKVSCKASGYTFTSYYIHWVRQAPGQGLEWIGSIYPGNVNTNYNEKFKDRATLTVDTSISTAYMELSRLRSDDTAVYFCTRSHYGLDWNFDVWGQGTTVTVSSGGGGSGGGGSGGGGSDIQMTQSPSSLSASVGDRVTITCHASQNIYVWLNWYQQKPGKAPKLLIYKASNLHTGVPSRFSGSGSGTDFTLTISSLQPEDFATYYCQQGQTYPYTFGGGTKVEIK
- Assay method text: phage ELISA; biotinylated anti-CD28 scFv on neutravidin plate, clonal phage supernatant, anti-M13 HRP detection;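 also: before phage addition, wells were pre-incubated with blocking buffer plus soluble CD28 protein, or blocking buffer only, with no wash in between, signal reflects phage remaining bound after washing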
Please use 1 (yes) for CD28 scFv signal under 0.08 and 0 (no) for everything else, ties included.

                       binder  category_label
0  MYWCPRDLWDVCFN [Phage-181]          0 (no)
1  MHWCPRYLWDECFN [Phage-180]          0 (no)
2  MDWCPSDLWHECFH [Phage-176]          0 (no)
3  MDWCPSYLWDQCFF [Phage-188]          0 (no)
4  VDWCPRYLWHVCYN [Phage-189]         1 (yes)
